Values were extracted from paper PMC11059093.

Target: Aβ1–42 (Homo sapiens)
Construct: Aβ1−42 (Sigma-Aldrich) was dissolved in NH4OH (1% v/v) to get a stock solution; purchased Sigma-Aldrich
Sequence (P05067 672-713 limits assumed): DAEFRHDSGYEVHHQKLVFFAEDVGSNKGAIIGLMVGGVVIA
Experiment: Inhibition of self-mediated Aβ1–42 aggregation, thioflavin T fluorescence assay
Type: biochemical
Conditions: ThT assay, compounds 20 μM, mean of n = 3 ± SD
Classify by inhibition at 20 µM. Ranges: low band (below 30%), middle band (30% to below 40%), high band (40% or more)

COMPOUND	CAT
O=C(NCc1c[nH]c2ccccc12)c1ccc2cccnc2c1O [Compound 13c]	middle band

// return the class label for COc1ccc2[nH]cc(CCNCc3ccc4cccc(O)c4n3)c2c1
low band

In plain terms, what class is COc1ccc2[nH]cc(CCNC(=O)c3ccc4cccnc4c3O)c2c1 [Compound 13b] ?
low band

Which inhibition at 20 µM category applies to COc1ccc2[nH]cc(CC(=O)NCc3ccc(O)c4ncccc34)c2c1 [Compound 11b] here?
middle band

Bin this entry: O=C(NCc1c[nH]c2ccccc12)c1ccc2cccc(O)c2n1
low band

----------
Test: Oxygen radical absorbance capacity (ORAC-FL) assay
Details: compounds 5 µM, mean of n = 3 ± SD
We begin with a simple list: items and their reported ORAC.
Numbers only here, please. The scale is Trolox equivalents.

Use the examples below as a reference point.
MOLECULE	MEASUREMENT_TYPE	UNITS_SYMBOL	OBSERVED_RESULT
COc1ccc2[nH]cc(CCNC(=O)c3ccc4cccnc4c3O)c2c1 [Compound 13b]	ORAC	Trolox equivalents	1.33
O=C(NCc1c[nH]c2ccccc12)c1ccc2cccnc2c1O [Compound 13c]	ORAC	Trolox equivalents	0.94
COc1ccc2[nH]cc(CCNCc3ccc4cccc(O)c4n3)c2c1	ORAC	Trolox equivalents	3.25
O=C(NCCc1c[nH]c2ccccc12)c1ccc2cccc(O)c2n1	ORAC	Trolox equivalents	2.49

Alright, here's another molecule for you.
What ORAC value was documented for this molecule, O=C(Cc1c[nH]c2ccccc12)NCc1ccc(O)c2ncccc12 [Compound 11a] ?
2.91

----------
Assay: Oxygen radical absorbance capacity (ORAC-FL) assay
Conditions: compounds 5 µM, mean of n = 3 ± SD
ORAC strictly under 3 Trolox equivalents means Y; at 3 Trolox equivalents or over means N.

Example entries begin here.
COMPOUND	CAT
O=C(NCCc1c[nH]c2ccc(O)cc12)c1ccc2cccc(O)c2n1 [Compound 6c]	N
COc1ccc2[nH]cc(CCNC(=O)c3ccc4cccc(O)c4n3)c2c1 [Compound 6b]	Y

Here's an entry: O=C(NCc1c[nH]c2ccccc12)c1ccc2cccc(O)c2n1 [Compound 6d] . Is its ORAC below 3 Trolox equivalents?
Y

----------
Assay: Parallel artificial membrane permeability assay for the blood-brain barrier (PAMPA-BBB)
Conditions: PAMPA
MEASUREMENT_TYPE: Papp (×10⁻⁶ cm/s)
Numbers only; they are read as ×10⁻⁶ cm/s.

The examples below pair each entry with its known result.
MOLECULE	Papp [×10⁻⁶ cm/s]
O=C(NCCc1c[nH]c2ccc(O)cc12)c1ccc2cccc(O)c2n1 [Compound 6c]	2.96
O=C(NCCc1c[nH]c2ccccc12)c1ccc2cccc(O)c2n1 [Compound 6a]	7.71
COc1ccc2[nH]cc(CCNC(=O)c3ccc4cccnc4c3O)c2c1 [Compound 13b]	1.12

What Papp value was documented for this molecule, COc1ccc2[nH]cc(CC(=O)NCc3ccc(O)c4ncccc34)c2c1 [Compound 11b] ?
1.35

Which Papp is listed for O=C(NCCc1c[nH]c2ccccc12)c1ccc2cccnc2c1O [Compound 13a] ?
3.98

----------
Assay: in vitro
Details: PAMPA
MEASUREMENT_TYPE: Papp (×10⁻⁶ cm/s)
Response body: numeric value in ×10⁻⁶ cm/s, unit text excluded.

Oc1cccc2ccc(CNCCc3c[nH]c4ccccc34)nc12 8.08
COc1ccc2[nH]cc(CCNCc3ccc4cccc(O)c4n3)c2c1 6.61

Query (compound): CN(CCc1c[nH]c2ccccc12)Cc1ccc2cccc(O)c2n1 ; field requested: Papp
9.87

Papp lookup needed for Oc1ccc2[nH]cc(CCNCc3ccc4cccc(O)c4n3)c2c1 , thanks.
4.81

----------
Catalogue of inhibition at 20 µM values
Molecular target: Aβ1–42 (Homo sapiens)
Construct: Aβ1−42 (Sigma-Aldrich) was dissolved in NH4OH (1% v/v) to get a stock solution; purchased Sigma-Aldrich
Experiment: Inhibition of self-mediated Aβ1–42 aggregation, thioflavin T fluorescence assay
Assay type: biochemical
Conditions: ThT assay, compounds 20 μM, mean of n = 3 ± SD
# number only, unit % dropped from output

COMPOUND	UNITS_SYMBOL	OBSERVED_RESULT
Oc1ccc2[nH]cc(CCNCc3ccc4cccc(O)c4n3)c2c1	%	40.2
COc1ccc2[nH]cc(CCNC(C)=O)c2c1	%	39
COc1cc(/C=C/C(=O)CC(=O)/C=C/c2ccc(O)c(OC)c2)ccc1O [Curcumin, reference compound]	%	52.9
Oc1cccc2ccc(CNCCc3c[nH]c4ccccc34)nc12	%	27.1
CN(CCc1c[nH]c2ccccc12)Cc1ccc2cccc(O)c2n1	%	52.5
Oc1c(I)cc(Cl)c2cccnc12 [CQ, clioquinol, reference compound]	%	30.8
O=C(NCCc1c[nH]c2ccccc12)c1ccc2cccc(O)c2n1	%	45.5
Oc1cccc2ccc(CNCc3c[nH]c4ccccc34)nc12	%	20.5
O=C(NCCc1c[nH]c2ccccc12)c1ccc2cccnc2c1O [Compound 13a]	%	47
COc1ccc2[nH]cc(CCNC(=O)c3ccc4cccc(O)c4n3)c2c1	%	63.2

Reported inhibition at 20 µM for Aβ1–42 (Homo sapiens), given O=C(Cc1c[nH]c2ccccc12)NCc1ccc(O)c2ncccc12 [Compound 11a] ?
44.7

Can you look up inhibition at 20 µM on Aβ1–42 (Homo sapiens) for O=C(NCCc1c[nH]c2ccc(O)cc12)c1ccc2cccc(O)c2n1 ?
40.3

----------
Recorded measurements of ORAC, one per entry
Test: Oxygen radical absorbance capacity (ORAC-FL) assay
Conditions: compounds 5 µM, mean of n = 3 ± SD
Give just the numeric value; Trolox equivalents need not be written.

Reference set (5 entries):
MOLECULE	OBSERVED_RESULT
Oc1cccc2ccc(CNCc3c[nH]c4ccccc34)nc12	2.60
Oc1cccc2ccc(CNCCc3c[nH]c4ccccc34)nc12	3.50
COc1ccc2[nH]cc(CC(=O)NCc3ccc(O)c4ncccc34)c2c1 [Compound 11b]	3.58
CN(CCc1c[nH]c2ccccc12)Cc1ccc2cccc(O)c2n1	2.93
Oc1ccc2[nH]cc(CCNCc3ccc4cccc(O)c4n3)c2c1	4.47

Which ORAC value is on record for O=C(NCCc1c[nH]c2ccccc12)c1ccc2cccnc2c1O [Compound 13a] ?
1.06

----------
The entries below come with measured Papp values attached.
Assay: Parallel artificial membrane permeability assay for the blood-brain barrier (PAMPA-BBB)
Conditions: PAMPA
Field format: number, assumed ×10⁻⁶ cm/s, no unit text.

COMPOUND	Papp / ×10⁻⁶ cm/s
O=C(NCc1c[nH]c2ccccc12)c1ccc2cccc(O)c2n1	6.81
O=C(NCc1c[nH]c2ccccc12)c1ccc2cccnc2c1O [Compound 13c]	2.65
Oc1cccc2ccc(CNCc3c[nH]c4ccccc34)nc12	5.09
CN(C)CCCN1c2ccccc2Sc2ccc(Cl)cc21 [Chlorpromazinne, chlorpromazine, reference compound]	6.63
O=C(Cc1c[nH]c2ccccc12)NCc1ccc(O)c2ncccc12 [Compound 11a]	2.82

// next entry
For COc1ccc2[nH]cc(CCNC(=O)c3ccc4cccc(O)c4n3)c2c1 , what is its reported Papp?
6.91
